# assay: Human HepG2 cell viability assay in 384 well format
# Format: toxicity, cell-based
# Parameters: dose 125 nL, time 70.5 hour; concentration not given beside the values
# run parameters: HepG2 cells, read-out: Inhibition
reported metric: cytotoxicity at 70.5 h (%)
Just the number in %, nothing appended.

In: Tell me the measured cytotoxicity at 70.5 h of O[C@H]1CN(c2nc(-c3ccccc3)no2)C[C@@H]1N1CCOCC1 , please.
Out: 6.13

In: Tell me the measured cytotoxicity at 70.5 h of CN(C)C(=O)CO[C@H]1CN(Cc2ccsc2)[C@@H]2COC[C@H]12 , please.
Out: -1.85

In: Tell me the measured cytotoxicity at 70.5 h of O=S1(=O)NC(C2CCCN(S(=O)(=O)N3CCCC3)C2)=Nc2ccccc21 (configuration not stated) , please.
Out: -6.9

In: Tell me the measured cytotoxicity at 70.5 h of CC(C)(C)[S+]([O-])CCNC(=O)c1ccc(Cl)c2cccnc12 (configuration not stated) , please.
Out: -6.1

In: Tell me the measured cytotoxicity at 70.5 h of Cc1nnc(C(C)N2CCCN(Cc3ccc(F)cc3)CC2)o1 (configuration not stated) , please.
Out: -2.19

In: Tell me the measured cytotoxicity at 70.5 h of Cc1noc(C)c1C(=O)N1CC[C@]2(C[C@@H](OCc3cccnc3)CO2)C1 , please.
Out: -9.24

In: Tell me the measured cytotoxicity at 70.5 h of NC(=O)N1CCCN(Cc2cc(F)cc(Br)c2)CC1 , please.
Out: -8.26

In: Tell me the measured cytotoxicity at 70.5 h of COCCN1CCC2(CCCN(c3ncc(F)cn3)C2)C1 (configuration not stated) , please.
Out: -3.02

In: Tell me the measured cytotoxicity at 70.5 h of COCc1ccccc1C(=O)N1CCN(C2=NCC(C)(C)S2)CC1 , please.
Out: -5.17

In: Tell me the measured cytotoxicity at 70.5 h of O=C1COc2ccc(S(=O)(=O)N3CCOCC3)c3c2N1CCC3 , please.
Out: 35.1

In: Tell me the measured cytotoxicity at 70.5 h of CC(C)Cc1noc(CN2CCN(C(=O)c3cccs3)CC2)n1 , please.
Out: -11.2

In: Tell me the measured cytotoxicity at 70.5 h of CN(CC(=O)Nc1cccc(F)c1)Cc1nc(N)nc(N(C)C)n1 , please.
Out: 1.01

In: Tell me the measured cytotoxicity at 70.5 h of CN(C)[C@@H]1CN(C(=O)c2ccc3ccccc3n2)C[C@H]1O , please.
Out: -7.72

In: Tell me the measured cytotoxicity at 70.5 h of O=C(CCc1nc(-c2ccsc2)no1)NCC1CCN(C2CC2)C1 (configuration not stated) , please.
Out: 7.83

In: Tell me the measured cytotoxicity at 70.5 h of O=C1C[C@H]2[C@@H](CCN2C(=O)Cc2cccs2)N1Cc1ccncc1 , please.
Out: 27.8

In: Tell me the measured cytotoxicity at 70.5 h of Cn1nnnc1SC1CCN(c2ccccc2Cl)C1=O (configuration not stated) , please.
Out: -2.66

In: Tell me the measured cytotoxicity at 70.5 h of COc1cccc(CN2CC(O)CN(S(C)(=O)=O)CC2=O)c1OC (configuration not stated) , please.
Out: 4.13
